- targetUnderTest: GLUT1 (Homo sapiens, UniProt P11166)
- Sequence (P11166 1-492): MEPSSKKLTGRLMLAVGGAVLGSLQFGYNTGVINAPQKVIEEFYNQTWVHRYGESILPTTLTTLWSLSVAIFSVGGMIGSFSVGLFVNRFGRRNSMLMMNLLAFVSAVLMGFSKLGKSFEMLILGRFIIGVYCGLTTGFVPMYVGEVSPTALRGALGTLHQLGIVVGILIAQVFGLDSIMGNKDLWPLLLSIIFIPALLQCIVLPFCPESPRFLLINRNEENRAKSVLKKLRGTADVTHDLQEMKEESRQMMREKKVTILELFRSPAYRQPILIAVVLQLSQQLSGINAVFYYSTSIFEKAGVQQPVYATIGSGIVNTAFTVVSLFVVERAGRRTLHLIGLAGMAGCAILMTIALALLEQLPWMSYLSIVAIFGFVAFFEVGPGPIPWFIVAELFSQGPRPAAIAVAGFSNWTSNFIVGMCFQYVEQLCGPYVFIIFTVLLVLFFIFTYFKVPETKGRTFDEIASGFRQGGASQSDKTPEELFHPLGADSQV
- assaySummary: Indirect measurement of GLUT1 activity by quantification of intracellular ATP levels (glucose induced ATP increase)
- Assay type: cell-based
- Set-up: endogenous in cells; host or cells: DLD1 or CHO-K1
- conditionSummary: read-out: IC50 regarding glucose induced ATP increase (GLUT1 inhibition)
Please go through the items and note down their pIC50.
Answers are plain numbers, as −log10 of the molar value.

For each of the compounds below, note its pIC50.
1. Cc1cc(Cn2nc(C)c(NC(=O)c3cc(C(N)=O)nc4cc(F)ccc34)c2C)on1
2. Cc1nn(Cc2cccc(C#N)c2)c(C)c1NC(=O)c1cc(C(N)=O)nc2cc(F)ccc12
3. Cc1nn(Cc2ccc(F)cc2C#N)c(C)c1NC(=O)c1cc(C(N)=O)nc2cccc(F)c12

Result:
7.98
7.88
8.40

For each listed entry, give its pIC50.
1. COc1ccc2nccc(C(=O)Nc3c(C)nn(Cc4ccc(F)cc4)c3C)c2c1
2. Cc1nn(Cc2ccc(C#N)cc2F)c(C)c1NC(=O)c1cc(C(N)=O)nc2cc(F)c(Cl)cc12
3. Cc1ccc(Cn2nc(C)c(NC(=O)c3cc(C)nc4ccc(C)cc34)c2C)cc1
4. Cc1nn(Cc2cccc(C#N)c2)c(C)c1NC(=O)c1cc(C(F)(F)F)nc2ccc(Br)cc12
5. Cc1c(NC(=O)c2cc(C(N)=O)nc3cc(F)ccc23)c(C(F)(F)F)nn1Cc1cc(F)ccc1C#N
6. Cc1nn(Cc2ccc(F)cc2)c(C)c1NC(=O)c1cc(C(N)=O)nc2c(Cl)cc(Cl)cc12

Result:
6.75
9.22
7.45
6.76
6.58
8.51

Hi, could you look up pIC50 for each item in my list?
1. Cc1nn(Cc2ccc(OC(F)(F)F)cc2)c(C)c1NC(=O)c1cc(C(N)=O)nc2cc(F)c(Cl)cc12
2. Cc1c(NC(=O)c2cc(C(F)(F)F)nc3ccc(Br)cc23)c(C(F)(F)F)nn1Cc1ccc(C(N)=O)cn1
3. Cc1ccc2nc(C)cc(C(=O)Nc3c(C)nn(Cc4ccc(C(F)(F)F)cc4)c3C)c2c1
4. Cc1nn(Cc2ccc(F)cc2)c(C)c1NC(=O)c1ccnc2ccccc12
5. Cc1ccc2nc(C)cc(C(=O)Nc3c(C)nn(Cc4ccccc4OC(F)(F)F)c3C)c2c1
6. Cc1nn(Cc2ccc(C(=O)NCCCN(C)C)cc2)c(C)c1NC(=O)c1cc(C(F)(F)F)nc2ccc(Br)cc12
7. CNC(=O)c1ccc(Cn2nc(C)c(NC(=O)c3cc(C(N)=O)nc4cc(F)ccc34)c2C)cc1

Result:
[8.39, 7.64, 6.23, 6.02, 5.20, 6.77, 7.25]
